meta.source: the RepoRT retention time repository (doi:10.1038/s41586-021-03707-9)

Test: Waters ACQUITY UPLC BEH C18, 100 × 2.1 mm, 1.7 µm, 40 °C, 0.28 mL/min, estimated dead time 0.63 min; A: water + 6.5 mM ammonium hydroxide; B: methanol + 6.5 mM ammonium hydroxide; gradient (min/%B) 0/0.5 4/70 4.5/98 5.4/98
Conditions: stereoisomer not certain
parameter.measured: LC retention time (min)

compound	value.unit	LC retention time
Cc1ccccc1C(=O)O	min	2.21
Oc1cccc2cccnc12	min	4.19
CCC(O)(CC)C(=O)O	min	1.31
CC(C)(O)CC(=O)O	min	1.2

[A] CC(C)(CO)C(O)C(=O)NCCC(=O)O (stereo not drawn)
[B] CC(=O)CCC(=O)O
[C] CC1NC(=O)NC1CCCCCC(=O)O (stereo not drawn)
[D] CC(C(=O)O)c1cccc(C(=O)c2ccccc2)c1 (stereo not drawn)
[Q] Could you please order the items by LC retention time, going from the lowest number to the highest? Returns: the labels arranged in the requested order.
[A] B, A, C, D
